Assay: Test E pharmacokinetic behavior in dogs
Assay type: in vivo
Settings: male, beagle, plasma; Dog; 5 mg/kg IV infusion over 15 minutes
Reported clearance values for a set of compounds
# output: bare number, implied unit L/h/kg

[
  {
    "COMPOUND": "Cc1c(N2CC[C@@H]([C@H](C)N)C2)c(F)cc2c(=O)[nH]c(=O)n(C3CC3)c12 [drawing 387]",
    "clearance (L/h/kg)": 0.522
  }
]

Consider now this further compound.
Incoming: Specify reported clearance for the compound shown: Cc1c(N2CC[C@@H]([C@H](C)N)C2)c(F)cc2c(=O)n(N)c(=O)n(C3CC3)c12 [reference compound]
Outgoing: 1.26
